Test: Inhibition of PKA
pKi: −log10 of the molar value.

{"SMI": "COc1ccc(C2=NNC(=O)/C2=N\\Nc2cccc(OC)c2)cc1", "pKi": "< 5.40"}
{"SMI": "COc1ccc(C2=NNC(=O)/C2=N\\Nc2cccnc2)cc1", "pKi": "< 5.40"}
{"SMI": "COc1ccncc1C1=NNC(=O)/C1=N\\Nc1ccccc1", "pKi": "< 5.40"}

* * *

Target: UniProtKB P49841
Sequence (P49841 whole entry): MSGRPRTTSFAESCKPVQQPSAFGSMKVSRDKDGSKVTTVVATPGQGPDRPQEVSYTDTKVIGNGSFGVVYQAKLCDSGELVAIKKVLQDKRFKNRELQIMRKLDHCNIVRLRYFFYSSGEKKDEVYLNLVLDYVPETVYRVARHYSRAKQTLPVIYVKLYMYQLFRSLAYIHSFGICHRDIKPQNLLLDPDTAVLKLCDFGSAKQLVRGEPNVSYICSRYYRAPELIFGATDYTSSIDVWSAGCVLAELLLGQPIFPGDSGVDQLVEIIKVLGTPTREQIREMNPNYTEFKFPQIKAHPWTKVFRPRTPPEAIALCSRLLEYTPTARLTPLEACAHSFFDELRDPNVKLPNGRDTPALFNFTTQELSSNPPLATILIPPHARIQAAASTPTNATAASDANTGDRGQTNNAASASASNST
Label yes (1) when Ki is strictly below 90 nM; otherwise label no (0).

{"SMI": "O=C1NN=C/C1=N/Nc1ccccc1Cl", "ASSIGNED_CATEGORY": "no (0)"}
{"SMI": "COc1ccc(C2=NNC(=O)/C2=N\\Nc2ccc(N(C)C)cc2)cc1OC", "ASSIGNED_CATEGORY": "yes (1)"}
{"SMI": "COc1cccc(C2=NNC(=O)/C2=N\\Nc2ccccn2)c1", "ASSIGNED_CATEGORY": "yes (1)"}
{"SMI": "COc1cccc(C2=NNC(=O)/C2=N\\Nc2cccnc2)c1", "ASSIGNED_CATEGORY": "yes (1)"}
{"SMI": "COc1cccc(N/N=C2\\C(=O)NN=C2c2ccc(OC)c(OC)c2)c1", "ASSIGNED_CATEGORY": "yes (1)"}
{"SMI": "O=C1NN=C(c2ccccc2)/C1=N/Nc1ccccc1", "ASSIGNED_CATEGORY": "no (0)"}
